The entries below are paired with their reported hERG current change (%, negative = inhibition) at 10uM.
biological target: human ether-à-go-go-related gene (hERG) potassium channel (human, UniProt Q12809); experiment: primary screen, population patch clamp on CHO cells stably expressing hERG; higher = less effect of the substance;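 also: peak tail current of the secondary pulse compared with the same well before compound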
Sequence (Q12809 whole entry, looked up): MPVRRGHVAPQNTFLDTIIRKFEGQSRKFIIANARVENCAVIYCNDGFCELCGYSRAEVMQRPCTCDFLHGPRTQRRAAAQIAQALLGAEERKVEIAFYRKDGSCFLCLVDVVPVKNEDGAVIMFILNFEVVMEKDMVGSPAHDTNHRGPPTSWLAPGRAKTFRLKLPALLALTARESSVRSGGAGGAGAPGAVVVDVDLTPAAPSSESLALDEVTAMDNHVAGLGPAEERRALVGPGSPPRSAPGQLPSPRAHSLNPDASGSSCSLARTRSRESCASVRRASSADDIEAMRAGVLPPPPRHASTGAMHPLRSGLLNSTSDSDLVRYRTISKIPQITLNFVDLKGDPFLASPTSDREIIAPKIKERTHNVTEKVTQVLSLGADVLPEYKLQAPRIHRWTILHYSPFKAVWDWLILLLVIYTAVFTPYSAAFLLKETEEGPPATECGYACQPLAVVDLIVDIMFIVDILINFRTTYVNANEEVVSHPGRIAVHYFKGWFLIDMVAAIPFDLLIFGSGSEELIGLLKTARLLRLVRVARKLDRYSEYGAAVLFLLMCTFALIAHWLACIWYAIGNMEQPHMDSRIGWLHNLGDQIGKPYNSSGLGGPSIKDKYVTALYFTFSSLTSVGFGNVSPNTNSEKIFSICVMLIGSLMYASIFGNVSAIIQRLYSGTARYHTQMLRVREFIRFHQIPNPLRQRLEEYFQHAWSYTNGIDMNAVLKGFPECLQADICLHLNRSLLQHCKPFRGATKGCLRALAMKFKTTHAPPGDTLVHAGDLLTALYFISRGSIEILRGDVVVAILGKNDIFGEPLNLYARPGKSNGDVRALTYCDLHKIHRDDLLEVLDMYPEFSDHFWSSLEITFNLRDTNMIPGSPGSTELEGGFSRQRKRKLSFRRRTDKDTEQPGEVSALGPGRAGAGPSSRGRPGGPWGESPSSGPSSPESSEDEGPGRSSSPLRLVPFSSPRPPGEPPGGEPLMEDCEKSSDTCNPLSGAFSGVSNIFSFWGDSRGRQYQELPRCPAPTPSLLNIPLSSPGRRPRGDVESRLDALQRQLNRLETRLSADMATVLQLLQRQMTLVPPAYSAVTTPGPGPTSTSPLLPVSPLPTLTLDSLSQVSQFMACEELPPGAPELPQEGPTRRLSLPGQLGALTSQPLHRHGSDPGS
Among all 310,000 compounds or so, about 14,000 (4.5%) showed an effect of 50% or more. Effects have a minus sign here. For the sample, strong results were picked, then their nearest neighbours and some compounds at random.
Provide only the numeric value, understood in %.

Completed entries (count: 9):
CCCc1c(-c2ccc(O)cc2)nn(-c2ccc(O)cc2)c1-c1ccc(O)cc1	12.6
Cn1c(CSCc2ccc(F)cc2)nnc1SCC(=O)Nc1cccc(C(=O)O)c1	9.71
Cc1ccc(S(=O)(=O)N2C(=O)CCC2C(=O)Nn2cnnc2)cc1 (stereo not shown)	5.62
CC(=O)c1cccc(NC(=O)C(C)N(C)CC(=O)Nc2ccc(Cl)cc2)c1 (stereo not shown)	-5.14
O=C(CCc1ccccc1)OCCOC(=O)CCc1ccccc1	22.1
COc1ccccc1CNC(=O)CCC(=O)N1CCOc2ccc(Cl)cc21	-5.43
Cn1c(-c2ccc(F)cc2)cnc1NCc1ccccc1	-46.7
Cc1c(C)n(C)c2ccc(C(=O)N3CCN(c4ccccc4)CC3)cc12	-5.05
Cc1ccc2c(c1)N(C(=O)CCC(=O)N1CCN(c3ccccc3)CC1)CCO2	-43.8

Turning to the following molecule.
Enquiry: Find the recorded hERG current change (%, negative = inhibition) at 10uM belonging to c1ccc(-n2nnnc2CN2CCOCC2)cc1 and report it.
Return: 14.8

---

biological target: human ether-à-go-go-related gene (hERG) potassium channel (human, UniProt Q12809); assay: primary screen, population patch clamp on CHO cells stably expressing hERG; higher = less effect of the substance;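 also: peak tail current of the secondary pulse compared with the same well before compound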
About 14,000 (4.5%) of roughly 310,000 compounds showed an effect of 50% or more. Effects have a minus sign here. What follows is part of a selection rich in strong results, with near analogues and random picks from the rest.
Label Y for high-side hERG current change (%, negative = inhibition) at 10uM (at or above -60%) and N for low-side hERG current change (%, negative = inhibition) at 10uM (below it).

CCCc1cc(=O)[nH]c(SCC(=O)c2cc(C)n(CC(F)(F)F)c2C)n1	Y
CCOC(=O)N1CCN(CC(=O)Nc2cccc(Br)c2)CC1	Y
Cl.O=C(NCCCn1ccnc1)c1ccc(N2CCCCCC2)c([N+](=O)[O-])c1	N

Enquiry: In plain terms: is recorded hERG current change (%, negative = inhibition) at 10uM at least -60% for O=C1CCN(CCc2ccccc2)CCN1[C@H](CSc1ccccc1)Cc1ccccc1 ?
Return: N

Enquiry: Determine whether measured hERG current change (%, negative = inhibition) at 10uM meets or exceeds -60% for COc1ccc(C(=O)NCCCn2ccnc2)cc1[N+](=O)[O-]
Return: Y

Enquiry: Would you say Cc1cccc(NC(=O)CNC(=O)CN2CCN(C)CC2)c1C shows hERG current change (%, negative = inhibition) at 10uM at minimum -60%?
Return: Y

Enquiry: Is it the case that CCCCNC(=O)N1CCCN(c2ccc(C#N)cn2)CC1 has hERG current change (%, negative = inhibition) at 10uM reaching or exceeding -60%?
Return: Y

Enquiry: Decide: is the reported value of hERG current change (%, negative = inhibition) at 10uM for Cc1cccc(NC(=O)CN2CCN(C(=O)CNC(=O)Cc3cccc4ccccc34)CC2)c1C equal to or greater than -60%?
Return: Y

Enquiry: Determine whether measured hERG current change (%, negative = inhibition) at 10uM meets or exceeds -60% for Cl.O=C(NCCCn1ccnc1)c1ccc(S(=O)(=O)N2CCCCCC2)cc1
Return: Y
